The origin of these recorded values is ChEMBL document CHEMBL1926543.

- System: HCT-116
- EXPERIMENT DESCRIPTION: Cytotoxicity against human HCT116 cells after 72 hrs by MTT assay
- Assay type: functional, cell-based
- ASSAY CONTEXT: HCT-116, 72 h
RECORDED ENDPOINT: pIC50
pIC50 here: minus log base 10 of the concentration, concentration in moles per litre.

Worked set:
{"COMPOUND": "CCCCn1nnc2cc3c4c(cccc4c21)C(=O)N(CCN(C)C)C3=O", "TARGET OR SYSTEM": "HCT-116", "pIC50": 5.74}
{"COMPOUND": "CN(C)CCN1C(=O)c2cccc3c2c(cc2nnn(CCN(C)C)c23)C1=O", "TARGET OR SYSTEM": "HCT-116", "pIC50": 6.72}
{"COMPOUND": "CN(C)CCN1C(=O)c2cccc3c2c(cc2nnn(CCO)c23)C1=O", "TARGET OR SYSTEM": "HCT-116", "pIC50": 5.85}
{"COMPOUND": "CN(C)CCN1C(=O)c2cccc3c2c(cc2nnn(C)c23)C1=O", "TARGET OR SYSTEM": "HCT-116", "pIC50": 6.19}

Identify pIC50 associated with the compound CN(C)CCCN1C(=O)c2cccc3c2c(cc2nnn(CCO)c23)C1=O
5.11

* * *

List of IC50 values.
- EXPERIMENT DESCRIPTION: Cytotoxicity against human U87MG cells after 72 hrs by MTT assay
- Format: functional, cell-based, U-87MG ATCC
- ASSAY CONTEXT: U-87 MG
Numeric only. Scale: nM

Solved entries (count: 2):
{"COMPOUND STRING": "CN(C)CCCN1C(=O)c2cccc3c2c(cc2nnn(CCCN(C)C)c23)C1=O", "UNITS": "nM", "IC50": 300}
{"COMPOUND STRING": "CN(C)CCCN1C(=O)c2cccc3c2c(cc2nnn(CCO)c23)C1=O", "UNITS": "nM", "IC50": 4310}

Please look at the following molecule next.
Give the reported IC50 for this molecule. CCCCn1nnc2cc3c4c(cccc4c21)C(=O)N(CCN(C)C)C3=O
1460

* * *

# log10 of IC50 annotations
- EXPERIMENT DESCRIPTION: Cytotoxicity against human U87MG cells after 72 hrs by MTT assay
- Format: functional, cell-based, U-87MG ATCC
- ASSAY CONTEXT: U-87 MG
Values are log10 of IC50 in nM.

Worked cases, log10 of IC50 given:
{"COMPOUND": "CN(C)CCN1C(=O)c2cccc3c2c(cc2nnn(CCN(C)C)c23)C1=O", "log10 of IC50": 2.11}
{"COMPOUND": "CN(C)CCCN1C(=O)c2cccc3c2c(cc2nnn(C)c23)C1=O", "log10 of IC50": 3.06}
{"COMPOUND": "CN(C)CCN1C(=O)c2cccc3cc(N)cc(c23)C1=O [AMONAFIDE]", "log10 of IC50": 3.45}

Answer with the recorded log10 of IC50 of CN(C)CCN1C(=O)c2cccc3c2c(cc2nnn(C)c23)C1=O only.
2.65

Please look at this compound and report its log10 of IC50: CCCCn1nnc2cc3c4c(cccc4c21)C(=O)N(CCCN(C)C)C3=O
3.80

Specify measured log10 of IC50 for CN(C)CCN1C(=O)c2cccc3c2c(cc2nnn(CCO)c23)C1=O .
3.09
